Listed compounds paired with reported growth inhibition
# test.summary: NCI Yeast Anticancer Drug Screen. Data for the bub3 strain (AID 167)
# condition.details: S. cerevisiae bub3 mutant strain, at 50.0 µM, hits give high values
The panel holds about 79,000 compounds, 15% with a hit somewhere; the sample as a whole holds those more often.
# value in %; strip the unit string

O=C(O)CCCCCCCCCCOc1ccc(Cl)cc1	11
COc1cc(C(=O)NC2CCc3cc(OC)c(OC)c(OC)c3-c3ccc(OC)c(=O)cc32)cc(OC)c1OC (stereo unspecified)	0.05
CC(C)CC(C)(O)C(N)=O (stereo unspecified)	0.35
O=C1CSC(c2ccccn2)N1CCN1C(=O)CSC1c1ccccn1 (stereo unspecified)	-8.05
C=C(CC(O)c1ccccc1)C(=O)Nc1ccccc1OC (stereo unspecified)	6.3

Sure, the documented growth inhibition for Cc1ccc(N2P(N(C)C)N(c3ccc(C)cc3)P2(=O)N(C)C)cc1 (stereo unspecified) is 3.6

Sure, the documented growth inhibition for `Cc1ccc(C(=O)Nc2ccc([N+](=O)[O-])cc2)cc1` is -5.35

###

# test.summary: NCI Yeast Anticancer Drug Screen. Data for the mec2-1 strain (AID 157)
# condition.details: S. cerevisiae mec2-1 strain, at 50.0 µM, hits give high values
About 79,000 compounds went through this panel and 15% of them were active in at least one assay; those are over-represented in the sample as a whole.
metric.name: growth inhibition (%)
# value in %; strip the unit string

O=S(=O)(c1ccc(Cl)cc1)N1CCN(S(=O)(=O)c2ccc(Cl)cc2)C1	8.1
O=C1CCC(N2C(=O)C3C4CCC(O4)C3C2=O)C(=O)O1 (configuration not stated)	3
Nc1nc(SCc2ccccc2[N+](=O)[O-])c2[nH]cnc2n1	22.2
CC(C)C1OC2(CCCCC2)OCC1(C)C (configuration not stated)	14.8
N=C(N)/N=C(/C=C/c1ccccc1)CC1OC(=O)c2ccccc21 (configuration not stated)	-10.7
CCc1ccccc1OCc1ccccc1	11.8

Sure, the documented growth inhibition for `CCOC(=O)c1nc2ccc(C(F)(F)F)cc2nc1Nc1cc(OC)c(OC)c(OC)c1` is -17.4

Sure, the documented growth inhibition for CCOC1Oc2ccccc2-c2nc(C)c(C#N)cc21 (configuration not stated) is 7.75

Sure, the documented growth inhibition for `CCOc1ccccc1/C=C1\CCc2ccccc2C1=O` is 34.8

Sure, the documented growth inhibition for CC1=CCCC(C)(C)C1/C=C/C(C)=N/NC(=O)Nc1ccccc1 (configuration not stated) is -6.2

Sure, the documented growth inhibition for `O=c1[nH]c2ccccc2c(O)c1O` is 7.85

Sure, the documented growth inhibition for `CC(=O)Nc1ccc(S(=O)(=O)CCS(=O)(=O)c2ccc(NC(C)=O)cc2)cc1` is 4.7

###

# test.summary: NCI Yeast Anticancer Drug Screen. Data for the mlh1 rad18 strain (AID 175)
# condition.details: S. cerevisiae mlh1 rad18 strain growth inhibition; at 50.0 µM; hits give high values
Compounds without any hit were thinned out: in the full panel of roughly 79,000, 15% have a hit. Calls of active or inactive are those of the source. Cut-off read from the data, not from the text of the source: active = growth inhibition above about 70%; inactive = the rest.
metric.name: growth inhibition

Some solved cases for reference:
Cc1c2ccccc2c(CN2CC(O)CC2C(=O)O)c2ccccc12 (stereo unspecified)	93.8% (active)
O=C(NC(CO)C(=O)O)c1ccccc1 (stereo unspecified)	-12.9% (inactive)
C1CC2CCC1CN(C1COC(N3CC4CCC(CC4)C3)CO1)C2 (stereo unspecified)	-0.65% (inactive)
O=C(NCCN1CCCC1)Nc1ccccc1Cl	0.15% (inactive)
CC[N+](C)(CC)c1ccccc1	1.1% (inactive)
COc1ccc([N+](=O)[O-])c2c(NCCC[N+](C)(C)[O-])c3ccccc3nc12	19.7% (inactive)

Sure, the documented growth inhibition for CC1(C)N(/N=C/c2ccccc2)C(c2ccccc2)C(c2ccccc2)N1/N=C/c1ccccc1 (stereo unspecified) is 9.75% (inactive)

Sure, the documented growth inhibition for `O=[N+]([O-])c1ccc(P(=O)(Nc2ccc(Cl)cc2)Nc2ccc(Cl)cc2)cc1` is 97.1% (active)

Sure, the documented growth inhibition for `CNC(=O)c1ccccc1Cl` is 19.2% (inactive)

Sure, the documented growth inhibition for `CC(C)(c1ccc(O)c(Cl)c1)c1cc(Cl)c(O)c(S(=O)(=O)O)c1` is -11.2% (inactive)

Sure, the documented growth inhibition for CC1=C(C)CC2(CC1)C(=O)C1(CCC(C)=C(C)C1)C2=O (stereo unspecified) is 15.6% (inactive)

Sure, the documented growth inhibition for `O=C1OC(/C=C/c2ccccc2)=NC/1=C\c1ccccc1O` is 6.6% (inactive)

Sure, the documented growth inhibition for O=C1C=CC2(CC=CCC2)CC1 (stereo unspecified) is 0.55% (inactive)

###

Listed molecules paired with reported growth inhibition
# test.summary: NCI Yeast Anticancer Drug Screen. Data for the mlh1 rad18 strain (AID 175)
# condition.details: S. cerevisiae mlh1 rad18 strain growth inhibition; at 50.0 µM; hits give high values
This is part of a sample that, as a whole, favours compounds with a hit. Of some 79,000 tested, about 15% had one in any assay.
# value in %; strip the unit string

Cc1ccccc1/C=N\NC(=O)CCCC(=O)N/N=C/c1ccccc1C	-9.4

Sure, the documented growth inhibition for `Nc1ccc2c(c1)Cc1c-2cc(Br)c(N)c1Br` is -6.75

Sure, the documented growth inhibition for `CCOC(=O)C1=C(C)N[C@H](c2ccccc2[N+](=O)[O-])N[C@H]1c1ccccc1[N+](=O)[O-]` is 9.25

###

Listed compounds paired with reported growth inhibition
# test.summary: NCI Yeast Anticancer Drug Screen. Data for the bub3 strain (AID 167)
# condition.details: S. cerevisiae bub3 mutant strain, at 50.0 µM, hits give high values
The panel holds about 79,000 compounds, 15% with a hit somewhere; the sample as a whole holds those more often.
# value in %; strip the unit string

CN1C/C(=C\c2ccco2)c2nc(N)nc(-c3ccco3)c2C1	6.85
CCOC(=O)c1c(O)csc1N	-20.6
C#CCOC(=O)c1ccccc1O	16.9

Sure, the documented growth inhibition for CC(=O)Nc1ccc(C(=O)NN2C(=O)CSC2c2ccc([N+](=O)[O-])cc2)cc1 (stereo unspecified) is -24.3

Sure, the documented growth inhibition for `Cc1ccccc1NC(=O)CSc1nnc(Cc2ccccc2)o1` is -33.8

Sure, the documented growth inhibition for `O=C(N=Nc1c(O)[nH]c2c(Cl)cc(Cl)cc12)C(=O)Nc1cccc(C(F)(F)F)c1` is -23.8

###

# test.summary: NCI Yeast Anticancer Drug Screen. Data for the bub3 strain (AID 167)
# condition.details: S. cerevisiae bub3 mutant strain, at 50.0 µM, hits give high values
This is part of a sample that, as a whole, favours compounds with a hit. Of some 79,000 tested, about 15% had one in any assay.
Listed compounds paired with reported growth inhibition
# value in %; strip the unit string

c1csc(-c2nc3sc(-c4cccs4)nc3s2)c1	-16.6
O=C1CC(O)C2C(=O)c3c(c(Cl)c4ccccc4c3O)C(=O)C2C1 (centres undefined)	3.85
Cc1cc(N(CCC#N)CCC#N)ccc1N=Nc1ccc(C(=O)O)cc1	-2.9
CCOCCOCCOC(=O)CC(C)=O	-11.8

Then there is this compound:
Sure, the documented growth inhibition for `COc1ccc(Cc2ccccc2)cc1` is -4.55

###

Listed compounds paired with reported growth inhibition
# test.summary: NCI Yeast Anticancer Drug Screen. Data for the rad50 strain (AID 155);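 also: 0% = growth of vehicle-only cultures of the same strain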
# condition.details: S. cerevisiae rad50 strain growth inhibition; at 50.0 µM; hits give high values
About 79,000 compounds went through this panel and 15% of them were active in at least one assay; those are over-represented in the sample as a whole.
# value in %; strip the unit string

Some solved cases for reference:
Cn1c(/N=C(/N)N=C(N)N)cc(=O)n(C)c1=O	12.8
CC(C)N(C(=O)C12C3C4C5C3C1(C(=O)N(C(C)C)C(C)C)C5C42)C(C)C (configuration not stated)	16.5
NCCCNCCCCN1CCOC1=O	2.8

Sure, the documented growth inhibition for `CCCCCCCCCCCc1cc(=O)c2c(O)cccc2o1` is -5

Sure, the documented growth inhibition for `CCCCCCOC(=O)CCBr` is 5

Sure, the documented growth inhibition for `Cc1ccc(C(=O)c2sc(Nc3cccc(C(F)(F)F)c3)c(C#N)c2N)c(C)c1` is 16.8

Sure, the documented growth inhibition for `CCCNS(=O)(=O)c1nc2ccccc2s1` is -26

###

Listed compounds paired with reported growth inhibition
# test.summary: NCI Yeast Anticancer Drug Screen. Data for the bub3 strain (AID 167)
# condition.details: S. cerevisiae bub3 mutant strain, at 50.0 µM, hits give high values
The panel holds about 79,000 compounds, 15% with a hit somewhere; the sample as a whole holds those more often.
# value in %; strip the unit string

Cc1oc2nc(N(C)C)n3nnnc3c2c1C	25.3
CC(=O)Nc1cnc2ccccc2c1	4.6

Sure, the documented growth inhibition for `O=C(O)c1ccccc1-c1ccccc1C(=O)Nc1ccc2c(c1)[nH]c(=O)c1ccccc12` is -15.8

Sure, the documented growth inhibition for `O=C1C=C/C(=N\N=C(c2ccccc2)c2ccccc2)O1` is -42.7

Sure, the documented growth inhibition for `CCOC(=O)C(Cc1ccc(OC)c(C)c1)(NC(C)=O)C(=O)OCC` is 3.85

Sure, the documented growth inhibition for `Cc1cc2sc(C)[n+](CCCOS(=O)(=O)[O-])c2cc1C` is -0.95

Sure, the documented growth inhibition for `O=C(NO)/C(CC(=O)c1ccc(O)cc1)=N\O` is -3.7

Cited source for all entries: PubChem BioAssay (NCI)
